# logD listing for each entry below
Protocol notes: Distribution coefficient between 1-Octanol and phosphate buffer at pH7.4
Assay type: physicochemical
Experimental parameters: 1-octanol/phosphate buffer, pH 7.4
Readout kind: logD

{"Compound": "CCN1CC2(CCN(CCc3c[nH]c4ccccc34)CC2)OC1=O", "Value observed": 1.92}
{"Compound": "CC(C)N1CC2(CCN(CCc3c[nH]c4ccccc34)CC2)OC1=O", "Value observed": 2.4}
{"Compound": "O=C1NC(c2ccccc2)C2(CCN(CC(O)C3COc4ccccc4O3)CC2)O1 (stereo unspecified)", "Value observed": 2.41}
{"Compound": "O=C1NCC2(CCN(CCc3c[nH]c4ccccc34)CC2)O1", "Value observed": 1.45}
{"Compound": "O=C1NC(Cc2ccccc2)C2(CCN(CC(O)C3COc4ccccc4O3)CC2)O1 (stereo unspecified)", "Value observed": 2.41}
{"Compound": "CCCN1CC2(CCN(CCc3c[nH]c4ccccc34)CC2)OC1=O", "Value observed": 2.36}
{"Compound": "CN1CC2(CCN(CC(O)C3COc4ccccc4O3)CC2)OC1=O (stereo unspecified)", "Value observed": 1.43}
{"Compound": "CCC1CN(CCc2c[nH]c3ccccc23)CCC12CNC(=O)O2 (stereo unspecified)", "Value observed": 2.01}
{"Compound": "CC(C)N1CC2(CCN(CC(O)C3COc4ccccc4O3)CC2)OC1=O (stereo unspecified)", "Value observed": 2.05}
{"Compound": "O=C1OC2(CCN(CCc3c[nH]c4ccccc34)CC2)CN1Cc1ccccc1", "Value observed": 2.91}
{"Compound": "CC1NC(=O)OC12CCN(CCc1c[nH]c3ccccc13)CC2 (stereo unspecified)", "Value observed": 1.43}
{"Compound": "O=C1OC2(CCN(CC(O)C3COc4ccccc4O3)CC2)CN1CCc1ccccc1 (stereo unspecified)", "Value observed": 2.79}
{"Compound": "CCC1N(C)C(=O)OC12CCN(CCc1c[nH]c3ccccc13)CC2 (stereo unspecified)", "Value observed": 2.14}
{"Compound": "COc1ccccc1OCC(O)CN1CCC2(CC1)CNC(=O)O2 (stereo unspecified)", "Value observed": 0.69}
{"Compound": "O=C1NC(c2ccccc2)C2(CCN(CCc3c[nH]c4ccccc34)CC2)O1 (stereo unspecified)", "Value observed": 2.61}
{"Compound": "CCCC1CN(CCc2c[nH]c3ccccc23)CCC12CNC(=O)O2 (stereo unspecified)", "Value observed": 2.42}
{"Compound": "CCC1NC(=O)OC12CCN(CCc1c[nH]c3ccccc13)CC2 (stereo unspecified)", "Value observed": 1.95}
{"Compound": "O=C1OC2(CCN(CCc3c[nH]c4ccccc34)CC2)CN1CCc1ccccc1", "Value observed": 2.95}
{"Compound": "CCCC1NC(=O)OC12CCN(CCc1c[nH]c3ccccc13)CC2 (stereo unspecified)", "Value observed": 2.31}
{"Compound": "CN1CC2(CCN(CCc3c[nH]c4ccccc34)CC2)OC1=O", "Value observed": 1.73}
{"Compound": "O=C1NC(Cc2ccccc2)C2(CCN(CCc3c[nH]c4ccccc34)CC2)O1 (stereo unspecified)", "Value observed": 2.68}
